# system name: T1, MORF DPF domain (residues 211–322) F287A/R306E/K309E (human, UniProt Q8WYB5 211-322, F287A | R306E | K309E)
# T1 sequence: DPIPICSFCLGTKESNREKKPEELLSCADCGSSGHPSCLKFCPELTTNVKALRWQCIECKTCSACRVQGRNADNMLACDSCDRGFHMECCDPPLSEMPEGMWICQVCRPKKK
# assay details: NMR
pKd: −log10 of the molar value. Ends that are not written are not given here. * marks the point of attachment. Crotonyl(E) = C/C=C/C(=O)*
readout type: pKd

binder	value reported
ARTKQTARKSTGGK(Crotonyl(E))APRKQ [histone H3K14cr peptide (residues 1–19 of H3)]	3.55
